systemTested: human APJ receptor (Homo sapiens, UniProt P35414)
Construct: expressed in transfected cells
experimentSummary: Intracellular cAMP accumulation assay (APJ hcAMP, HTRF)
Type: cell-based
measurementConditions: Table 1; HEK293 cells stably expressing human APJ, forskolin-stimulated cAMP; read-out: APJ cAMP EC50

cpdSmiles	EC50
CCCCc1nc(O)c(C(=O)N2CCC(c3ccccc3Cl)CC2)c(O)c1-c1c(OC)cccc1OC	10 to 100 nM
CCCCc1nc(O)c(C(=O)N2CCN(c3ccccc3Cl)CC2)c(O)c1-c1c(OC)cccc1OC	10 to 100 nM
CCCCc1nc(O)c(C(=O)N2CCN(Cc3ccccc3F)CC2)c(O)c1-c1c(OC)cccc1OC	0.01 to 10 nM
CCCCc1nc(O)c(C(=O)N2CCC(c3cccc(Cl)c3)CC2)c(O)c1-c1c(OC)cccc1OC	10 to 100 nM
CCCCc1nc(O)c(C(=O)N2CCC(N3CCCC3)CC2)c(O)c1-c1c(OC)cccc1OC	10 to 100 nM
CCOCc1nc(O)c(C(=O)N2CC[C@@H](c3ccccc3)C2)c(O)c1-c1c(OC)cccc1OC	10 to 100 nM
CCCCc1nc(O)c(C(=O)N2CCN(C3CCCCC3)CC2)c(O)c1-c1c(OC)cccc1OC	10 to 100 nM
CCCCc1nc(O)c(C(=O)N2CCCN(c3nnnn3-c3ccccc3)CC2)c(O)c1-c1c(OC)cccc1OC	10 to 100 nM
CCCCc1nc(O)c(C(=O)N2CCN(c3cccnn3)CC2)c(O)c1-c1c(OC)cccc1OC	100 to 300 nM
CCCCc1nc(O)c(C(=O)N2CCN(C(=O)c3ccccc3)CC2)c(O)c1-c1c(OC)cccc1OC	0.01 to 10 nM
CCCCc1nc(O)c(C(=O)N2CCN(Cc3ccc(F)cc3)CC2)c(O)c1-c1c(OC)cccc1OC	0.01 to 10 nM
CCCCc1nc(O)c(C(=O)N2CCN(c3ccccn3)CC2)c(O)c1-c1c(OC)cccc1OC	10 to 100 nM
CCCCc1nc(O)c(C(=O)N2CCN(c3nc4ccccc4s3)CC2)c(O)c1-c1c(OC)cccc1OC	10 to 100 nM
CCCCc1nc(O)c(C(=O)N2CCN(c3nccn3C)CC2)c(O)c1-c1c(OC)cccc1OC	100 to 300 nM
CCCCc1nc(O)c(C(=O)N2CCN(c3nc4ccccc4o3)CC2)c(O)c1-c1c(OC)cccc1OC	10 to 100 nM
CCCCc1nc(O)c(C(=O)N2CCN(Cc3ccc(Cl)cc3)CC2)c(O)c1-c1c(OC)cccc1OC	0.01 to 10 nM

* * *

systemTested: human APJ receptor (Homo sapiens, UniProt P35414)
Construct: expressed in transfected cells
Sequence (P35414 1-380): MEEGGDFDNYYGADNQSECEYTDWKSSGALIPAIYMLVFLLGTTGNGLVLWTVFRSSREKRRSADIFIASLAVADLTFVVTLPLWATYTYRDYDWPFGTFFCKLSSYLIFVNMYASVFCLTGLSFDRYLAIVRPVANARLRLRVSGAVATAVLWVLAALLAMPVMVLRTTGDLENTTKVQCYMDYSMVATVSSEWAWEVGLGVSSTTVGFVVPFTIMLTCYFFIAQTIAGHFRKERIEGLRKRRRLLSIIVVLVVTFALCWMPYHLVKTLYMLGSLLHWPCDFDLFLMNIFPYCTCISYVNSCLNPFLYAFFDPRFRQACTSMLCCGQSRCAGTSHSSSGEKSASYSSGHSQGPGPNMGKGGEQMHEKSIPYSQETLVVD
experimentSummary: Intracellular cAMP accumulation assay (APJ hcAMP, HTRF)
Format: cell-based
measurementConditions: Table 6; HEK293 cells stably expressing human APJ, forskolin-stimulated cAMP; read-out: Human cAMP EC50
pEC50: −log10 of the molar value.

compound	pEC50
CCCCc1nc(O)c(C(=O)N2CC[C@H](OCc3ccccc3)C2)c(O)c1-c1c(OC)cccc1OC	8.00 to 11.00
CCOCc1nc(O)c(C(=O)N2CCC(c3c(F)cccc3F)C2)c(O)c1-c1c(OC)cccc1OC (stereo not drawn) [Example 134]	8.00 to 11.00
CCOCc1nc(O)c(C(=O)N2CC[C@H](OCc3ccccc3)C2)c(O)c1-c1c(OC)cccc1OC	7.00 to 8.00
CCOCc1nc(O)c(C(=O)N2CCC(c3c(F)cccc3F)C2)c(O)c1-c1c(OC)cccc1OC (stereo not drawn) [Example 133]	8.00 to 11.00
CCOCc1nc(O)c(C(=O)N2CCC(c3ccc(F)cc3F)C2)c(O)c1-c1c(OC)cccc1OC (stereo not drawn) [Example 131]	8.00 to 11.00
CCOCc1nc(O)c(C(=O)N2CCC(c3ccc(F)cc3F)C2)c(O)c1-c1c(OC)cccc1OC (stereo not drawn) [Example 132]	8.00 to 11.00

* * *

systemTested: human APJ receptor (Homo sapiens)
Construct: expressed in transfected cells
experimentSummary: Intracellular cAMP accumulation assay (APJ hcAMP, HTRF)
Assay type: cell-based
measurementConditions: Table 1; HEK293 cells stably expressing human APJ, forskolin-stimulated cAMP; read-out: APJ cAMP EC50
pEC50: −log10 of the molar value.
Recorded measurements of pEC50, one per entry
reportedEndpoint: pEC50

cpdSmiles	systemTested	reportedEndpoint	reading
CCCCc1nc(O)c(C(=O)N2CCN(c3ccc(OCCOC)cc3)CC2)c(O)c1-c1c(OC)cccc1OC	human APJ receptor (Homo sapiens)	pEC50	6.52 to 7.00
CCCCc1nc(O)c(C(=O)N2CCN(c3ccncc3)CC2)c(O)c1-c1c(OC)cccc1OC	human APJ receptor (Homo sapiens)	pEC50	6.52 to 7.00
CCCCc1nc(O)c(C(=O)N2CC(c3cccc(Cl)c3)C2)c(O)c1-c1c(OC)cccc1OC	human APJ receptor (Homo sapiens)	pEC50	8.00 to 11.00
CCCCc1nc(O)c(C(=O)N2CCN(c3nsc4ccccc34)CC2)c(O)c1-c1c(OC)cccc1OC	human APJ receptor (Homo sapiens)	pEC50	8.00 to 11.00

* * *

systemTested: human APJ receptor (Homo sapiens, UniProt P35414)
Construct: expressed in transfected cells
Sequence (P35414 1-380): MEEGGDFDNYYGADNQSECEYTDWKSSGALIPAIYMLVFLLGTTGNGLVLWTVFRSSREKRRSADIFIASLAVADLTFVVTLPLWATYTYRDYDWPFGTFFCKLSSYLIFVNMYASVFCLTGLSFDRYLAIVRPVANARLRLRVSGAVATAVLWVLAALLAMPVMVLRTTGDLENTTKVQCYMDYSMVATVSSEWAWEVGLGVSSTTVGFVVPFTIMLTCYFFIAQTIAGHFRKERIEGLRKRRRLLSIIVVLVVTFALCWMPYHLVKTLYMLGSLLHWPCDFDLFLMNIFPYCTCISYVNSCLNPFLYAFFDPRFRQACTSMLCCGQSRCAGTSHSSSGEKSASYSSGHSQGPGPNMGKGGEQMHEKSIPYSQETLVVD
experimentSummary: Intracellular cAMP accumulation assay (APJ hcAMP, HTRF)
Assay type: cell-based
measurementConditions: HEK293 cells stably expressing human APJ; read-out: Human cAMP Potency range
reportedEndpoint: EC50

compound	reading
CCNCc1nc(O)c(C(=O)N2CCC(c3cccc(F)c3)C2)c(O)c1-c1c(OC)cccc1OC (single isomer, unassigned) [Example 149]	100 to 300 nM

* * *

systemTested: human APJ receptor (Homo sapiens, UniProt P35414)
Construct: expressed in transfected cells
Sequence (P35414 1-380): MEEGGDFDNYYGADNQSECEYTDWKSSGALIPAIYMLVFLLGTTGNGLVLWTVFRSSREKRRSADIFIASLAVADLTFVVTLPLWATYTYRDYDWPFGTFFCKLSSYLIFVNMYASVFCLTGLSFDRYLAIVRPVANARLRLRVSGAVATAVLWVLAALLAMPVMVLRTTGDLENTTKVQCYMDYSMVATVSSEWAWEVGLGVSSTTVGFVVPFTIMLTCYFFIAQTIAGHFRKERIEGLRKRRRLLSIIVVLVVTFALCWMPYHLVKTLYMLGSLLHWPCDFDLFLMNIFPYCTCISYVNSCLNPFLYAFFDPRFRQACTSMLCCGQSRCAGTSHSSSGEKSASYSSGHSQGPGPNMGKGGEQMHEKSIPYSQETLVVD
experimentSummary: Intracellular cAMP accumulation assay (APJ hcAMP, HTRF)
Assay type: cell-based
measurementConditions: Table 4; HEK293 cells stably expressing human APJ, forskolin-stimulated cAMP; read-out: Human cAMP EC50

cpdSmiles	EC50
CCCCc1nc(O)c(C(=O)N2CCN(C(=O)c3cccc(F)c3F)CC2)c(O)c1-c1c(OC)cccc1OC	0.01 to 10 nM
CCCCc1nc(O)c(C(=O)N(CCC)CCc2ccccc2F)c(O)c1-c1c(OC)cccc1OC	100 to 300 nM
CCOCc1nc(O)c(C(=O)N2CCN(Cc3cccc(Cl)c3Cl)CC2)c(O)c1-c1c(OC)cccc1OC	0.01 to 10 nM
CCCCc1nc(O)c(C(=O)N2CCC(Oc3ccc(Cl)cn3)CC2)c(O)c1-c1c(OC)cccc1OC	0.01 to 10 nM
CCCCc1nc(O)c(C(=O)N2CCN(Cc3ncccc3F)CC2)c(O)c1-c1c(OC)cccc1OC	0.01 to 10 nM
CCCCc1nc(O)c(C(=O)N2CC[C@@H](c3ccccc3)C2)c(O)c1-c1cc(OC)ccc1OC	0.01 to 10 nM
CCCCc1nc(O)c(C(=O)N2CCN(Cc3cccc(F)c3F)CC2)c(O)c1-c1cccc(OC)c1OC	0.01 to 10 nM
CCCCc1nc(O)c(C(=O)N2CCC(Cc3cc(F)ccc3Br)CC2)c(O)c1-c1c(OC)cccc1OC	0.01 to 10 nM
CCCCc1nc(O)c(C(=O)N2CC(NS(=O)(=O)c3cccc(F)c3F)C2)c(O)c1-c1c(OC)cccc1OC	0.01 to 10 nM
CCCCc1nc(O)c(C(=O)N(C)CCNC(=O)c2ccccc2)c(O)c1-c1c(OC)cccc1OC	10 to 100 nM
CCCCc1nc(O)c(C(=O)N2CCN(Cc3cccc(Cl)c3Cl)CC2)c(O)c1-c1cc(OC)ccc1OC	0.01 to 10 nM
CCCCc1nc(O)c(C(=O)N2CC[C@H](c3ccccc3)C2)c(O)c1-c1cc(OC)ccc1OC	0.01 to 10 nM
CCCCc1nc(O)c(C(=O)N2CCN(Cc3cccc(Cl)c3Cl)CC2)c(O)c1-c1c(OC)cccc1OC	0.01 to 10 nM
CCCCc1nc(O)c(C(=O)N(C)CCNc2ncc(Cl)cc2F)c(O)c1-c1c(OC)cccc1OC	10 to 100 nM
CCCCc1nc(O)c(C(=O)N2CCN(Cc3ccc(Cl)cc3Cl)CC2)c(O)c1-c1c(OC)cccc1OC	0.01 to 10 nM
CCCCc1nc(O)c(C(=O)N2CCN(Cc3cccc(F)c3F)CC2)c(O)c1-c1c(OC)cccc1OC	0.01 to 10 nM
CCCCc1nc(O)c(C(=O)N2CCN(Cc3cccc(Cl)n3)CC2)c(O)c1-c1c(OC)cccc1OC	0.01 to 10 nM
CCCCc1nc(O)c(C(=O)N2CC(Oc3ncccc3F)C2)c(O)c1-c1c(OC)cccc1OC	0.01 to 10 nM
CCCCc1nc(O)c(C(=O)N2CCN(Cc3cccc(Cl)c3Cl)CC2)c(O)c1-c1cccc(OC)c1OC	0.01 to 10 nM
CCOCc1nc(O)c(C(=O)N2CCN(Cc3ccccc3F)CC2)c(O)c1-c1c(OC)cccc1OC	0.01 to 10 nM
CCOCc1nc(O)c(C(=O)N2CCN(Cc3cccc(F)c3F)CC2)c(O)c1-c1c(OC)cccc1OC	0.01 to 10 nM
CCCCc1nc(O)c(C(=O)N2CCN(Cc3ccccn3)CC2)c(O)c1-c1c(OC)cccc1OC	0.01 to 10 nM
CCOCc1nc(O)c(C(=O)N2CCN(Cc3cccc(F)c3)CC2)c(O)c1-c1ccccc1OC	10 to 100 nM
CCCCc1nc(O)c(C(=O)N2CCN(Cc3cc(F)ccc3F)CC2)c(O)c1-c1c(OC)cccc1OC	0.01 to 10 nM
CCOCc1nc(O)c(C(=O)N2CCN(Cc3cccc(F)c3)CC2)c(O)c1-c1c(OC)cccc1OC	10 to 100 nM
CCCCc1nc(O)c(C(=O)N2CCC(Oc3ccccc3)CC2)c(O)c1-c1c(OC)cccc1OC	0.01 to 10 nM
CCCCc1nc(O)c(C(=O)N2CCN(CC3CC3)CC2)c(O)c1-c1c(OC)cccc1OC	10 to 100 nM
COCCc1nc(O)c(C(=O)N2CCN(Cc3cccc(F)c3)CC2)c(O)c1-c1c(OC)cccc1OC	100 to 300 nM
CCCCc1nc(O)c(C(=O)N2CCN(CC3CCCCC3)CC2)c(O)c1-c1c(OC)cccc1OC	10 to 100 nM
CCCCc1nc(O)c(C(=O)N2CCN(Cc3cccc(C(F)(F)F)c3)CC2)c(O)c1-c1c(OC)cccc1OC	100 to 300 nM
